Molecular target: human GLP-1 receptor (human, UniProt P43220 24-463)
Assay: cell-based or functional assay
Numbered stars: 1 amine (or outer) side, 2 acyl side, 3 side chain; on linkers, the order of the positions; unused ones are H or OH. Square brackets hold non-standard residues; d marks the D form. Side chains are listed from the residue outwards. Ends that are not written are not given here. * marks the point of attachment. C20 diacid = O=C(O)CCCCCCCCCCCCCCCCCCC(=O)*; γGlu = O=C(O)[C@H](CCC(=O)[*:2])N[*:1]; αMeF = C[C@](N)(Cc1ccccc1)C(=O)O; αMeL = CC(C)C[C@](C)(N)C(=O)O; cTA = not defined here; AEEA = NCCOCCOCC(=O)O; Aib = CC(C)(N)C(=O)O
Each entry belongs to exactly one class, chosen by where its hGLPIR cAMP EC50 ratio falls: lo = under 0.5, med = from 0.5 up to 1, hi = 1 and over

Answered examples (10):
Class label required: Y[Aib][cTA]GT[αMeF]TSDYSI[αMeL]LDEK([AEEA-AEEA-γGlu-C20 diacid])AQ[Aib]AFIEYLIEGGPSSGAPPPS-NH2 (reading uncertain) [Peptide 120] lo

Bin this entry: YXEGTXTSDYSIXLDKKAQHXFIEYLIEGGPSSGAPPPS (Aib2; αMeF6; αMeL13; K17((2-[2-(2-Amino-ethoxy)-ethoxy]-acetyl)2-(γGlu)-CO-(CH2)18-CO2H); Aib21; C-terminal NH2) [Peptide 144] med

Hi there! Could you help me figure out the category for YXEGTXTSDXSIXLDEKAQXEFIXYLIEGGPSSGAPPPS (Aib2; αMeF(2F)6; 4Pal10; αMeL13; K17((2-[2-(2-Amino-ethoxy)-ethoxy]-acetyl)2-CO-(CH2)16-CO2H); Aib20; D-Glu24; C-terminal NH2) [Peptide 205] please? hi

Form: Item = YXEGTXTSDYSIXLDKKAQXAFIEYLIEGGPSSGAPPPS (Aib2; αMeF6; αMeL13; K17((2-[2-(2-Amino-ethoxy)-ethoxy]-acetyl)2-(γGlu)2-CO-(CH2)18-CO2H); Aib20; C-terminal NH2) [Peptide 125] ; Class = ? hi

Looking at YXEGTXTSDHSILLDKKAQXAFIEYLIEGGPSSGAPPPS (Aib2; αMeF6; K17((2-[2-(2-Amino-ethoxy)-ethoxy]-acetyl)2-(γGlu)-CO-(CH2)18-CO2H); Aib20; C-terminal NH2) [Peptide 128] , which class would you pick? med

Which hGLPIR cAMP EC50 ratio band matches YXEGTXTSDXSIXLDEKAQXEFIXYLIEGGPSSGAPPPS (Aib2; αMeF(2F)6; 3Pal10; αMeL13; K17((2-[2-(2-Amino-ethoxy)-ethoxy]-acetyl)2-(γGlu)-CO-(CH2)18-CO2H); Aib20; D-Glu24; C-terminal NH2) [Peptide 181] ? med

Band for YXEGTXTSDHSIXLDXKAQXTFIXYLIEGGPSSGAPPPS (Aib2; αMeF(2F)6; αMeL13; Orn16; K17((2-[2-(2-Amino-ethoxy)-ethoxy]-acetyl)2-(γGlu)-CO-(CH2)18-CO2H); Aib20; D-Glu24; C-terminal NH2) [Peptide 171] ? lo

Which band does YXEGTXTSDLSIXLDXKAQXEFIXXLIEGGPSSGAPPPS (not fully specified; Aib2; αMeF(2F)6; αMeL13; Orn16; K17((2-[2-(2-Amino-ethoxy)-ethoxy]-acetyl)2-(γGlu)-CO-(CH2)16-CO2H); Aib20; D-Glu24; αMeY25; C-terminal NH2) [Peptide 238] fall in? hi

// bin(item) where item = YXEGTXTSDYSIXLDEKAQXEFIXYLIEGG (Aib2; αMeF(2F)6; αMeL13; K17((2-[2-(2-Amino-ethoxy)-ethoxy]-acetyl)2-(γGlu)-CO-(CH2)16-CO2H); Aib20; D-Glu24; C-terminal NH2) [Peptide 220] hi

Textbook exercise: identify the category of the binder given here, YXEGTFTSDYSIXLDXKAQXAFIEYLIEGGPSSGAPPPS (Aib2; αMeL13; Aib16; K17((2-[2-(2-Amino-ethoxy)-ethoxy]-acetyl)2-(γGlu)-CO-(CH2)18-CO2H); Aib20; C-terminal NH2) [Peptide 60] , according to its measured value. lo

More entries:
Band for the recorded hGLPIR cAMP EC50 ratio of YXEGTXTSDVSIXLDXKAQXTFIXXLIEGGPSSGAPPPS (not fully specified; Aib2; αMeF(2F)6; αMeL13; Orn16; K17((2-[2-(2-Amino-ethoxy)-ethoxy]-acetyl)2-(γGlu)-CO-(CH2)16-CO2H); Aib20; D-Glu24; αMeY25; C-terminal NH2) [Peptide 241] ? hi
